- Tested on: HCC-2998 colon
- Test Details: NCI tumour cell line growth inhibition, 48 h
For each record, write down the corresponding TGI.

As a guide, the following entries are already answered.
Compound	Quantity Measured	Val
CS/C(C#N)=C(\C#N)SC	TGI	20.9 µM
CC1(C)O[C@H]([C@H](O)c2nnc3ccc(Cl)nn23)[C@@H]([C@H]2COC(C)(C)O2)O1	TGI	> 100 µM
CC(/C=C/C(=O)c1sc(-n2nc(-c3ccccc3)cc2-c2ccccc2)nc1C)=C\c1ccccc1	TGI	> 100 µM
CN(C)CC1CCCC(CN2CCCCC2)C1=O (stereo not given)	TGI	33.4 µM

Alright, here's another compound for you.
stdin: Provide measured TGI value, entry: O=C(/C=C/c1ccc(O)c(O)c1)OC1C[C@@](O)(C(=O)O)C[C@@H](O)[C@H]1OC(=O)/C=C/c1ccc(O)c(O)c1 (stereo not given in full)
stdout: > 100 µM

----------
Kindly state TGI for each of the entries shown.
- Tested on: HOP-62 NSCLC
- Test Details: NCI tumour cell line growth inhibition, 48 h

Example cases with answers are listed next.
Compound	TGI
Cc1ccccc1[P+](C)(c1ccccc1C)c1ccccc1C	71.8 µM
CN(C)CCCNC(=O)c1cc(NC(=O)c2cc(NS(=O)(=O)c3ccc4c(c3)C(=O)c3ccccc3C4=O)cn2C)cn1C	> 100 µM
CC1=CC=C2c3ccccc3C=CN2C(=O)C1	> 100 µM
C=CCc1c(C)nc(C)nc1N/N=C/C=C/c1ccccc1	38.8 µM
CC1(C)C=Cc2c(cc3oc4ccc5c(c4c(=O)c3c2O)C=CC(C)(C)O5)O1	> 100 µM
O=C1Oc2ccccc2C(=O)/C1=C/N1C(=O)/C(=C/c2ccc3c(c2)OCO3)SC1=S	24.4 µM

Give TGI for each of the items listed below.
1. C=C(C)CNC(=S)N(N)c1ccc(OC)cc1
2. CCSC(SCC)c1cc2c(cc1Br)OCO2
3. O=C(CSc1nc2ccccc2nc1-c1ccccc1)Nc1ccc(Cl)cc1
4. O=c1[nH]c(=O)n(C2OC(CO)C(O)C2O)c2ncc(-c3ccc(-c4ccccc4)cc3)nc12 (stereo unspecified)

stdout:
["> 100 µM", "> 100 µM", "20.4 µM", "> 20 µM"]

----------
- Tested on: UACC-62 melanoma
- Test Details: NCI tumour cell line growth inhibition, 48 h
Quantity Measured: GI50

Solved entries:
Molecule	GI50
COC(=O)C(Cc1cnc[nH]1)NC(=O)CNC(=O)CCCn1c(=O)c2c3ccccc3n(C)c2n2nnc(-c3ccccc3)c12 (stereo not given)	> 100 µM
Cn1cc(-c2csc(-c3cn(C)c4ccc(Br)cc34)n2)c2cnccc21	1.72 µM
COc1ccccc1/C=C/C(=O)c1c(O)cc2occc2c1OC	23.7 µM
Cc1cccc(-c2nn3c(c2-c2ccnc4ccc(C(N)=O)cc24)CCC3)n1	78.8 µM

stdin: Please give the documented GI50 of Nc1ccccc1SC(CC(=O)c1ccccc1)c1ccc([N+](=O)[O-])cc1 (stereo not given)
stdout: 12.1 µM

----------
- Test system: MDA-MB-231 breast
- Test Details: NCI tumour cell line growth inhibition, 48 h
Quantity Measured: TGI

Example results:
Compound	TGI
NC(=O)NC(=O)CCC(NS(=O)(=O)c1ccccc1)C(=O)NC(N)=O (centres undefined)	> 100 µM
CC1(C)C(C#N)=[N+]([O-])C(C)(C)N1O	> 100 µM
Cc1cc2nc3c(C#N)c(-c4ccccc4)/c(=C\Nc4ccc(Cl)cc4)c(=O)n3c2cc1C	> 100 µM
Cc1c(-c2ccccc2)[nH]c2ccc(Cl)cc2c1=O	96 µM
CNC1C(O)C(OC2C(N)CC(N)C(OC3OC(CN)=CCC3N)C2O)OCC1(C)O (centres undefined)	> 100 µM
COc1cc2c3c(c4ccc(OC)c(OC)c4c2cc1OC)CN1CCC[C@@H]1C3	0.156 µM
COC(=O)[C@H]1C(=O)[C@@]2(C)[C@H]([C@H](OC(=O)c3ccccc3)[C@]3(O)C[C@H](OC(=O)[C@H](O)[C@@H](NC(=O)c4ccc(F)cc4)c4ccccc4)C(C)=C1C3(C)C)[C@]1(OC(C)=O)CO[C@@H]1C[C@@H]2O	> 14.4 µM
O=C1c2sc(-c3ccc(F)cc3)cc2-n2cccc21	86.3 µM

Consider the following items and state reported TGI for each.
1. C=CCOc1ccc(/C(N=Nc2ccc(C)cc2)=N/NC(=O)c2ccccc2)cc1OC
2. CC1=CC=C2c3ccccc3C=CN2C(=O)C1
3. CC(C)(C)N1C(=O)c2ccccc2C1(O)C(F)(F)F (centres undefined)
4. Cc1ccc(S(=O)(=O)Oc2ccc([N+](=O)[O-])cc2[N+](=O)[O-])cc1

stdout:
1. > 100 µM
2. > 100 µM
3. > 100 µM
4. 22.1 µM

# batch size: 7; output TGI per entry
1. O=C(NCCc1ccccc1)C(c1ccccc1)(c1ccccc1)c1ccccc1
2. Cc1cccc(O)c1-c1nnc(CCCCCCCCc2nnc(-c3c(C)cccc3O)n2N)n1N
3. CC(C)OC(=O)Nc1cccc(Cl)c1
4. Cc1ccccc1N=CN(C)C
5. Cc1ccc(S(=O)(=O)N2c3ccccc3[C@H]3CCc4c([nH]c5ccccc45)[C@H]32)cc1
6. Cc1ccccc1[P+](C)(c1ccccc1C)c1ccccc1C
7. CCc1c2c(nc3cc4c(c(N)c13)OCO4)-c1cc3c(c(=O)n1C2)COC(=O)[C@]3(O)CC

stdout:
4.21 µM
> 100 µM
> 100 µM
> 100 µM
> 100 µM
35.2 µM
> 100 µM
